Origin of measurements: paper PMC3499949

# SYSTEM: UniProtKB P32300
# ASSAY_TEXT: [35S]GTP-γ-S binding assay, agonist stimulation, DOR
# COND: stimulation of [35S]GTP-γ-S binding; no stim = no stimulation at 10 µM

{"columns": ["MOLECULE", "DOR EC50"],
 "data": [
  ["O=C(CCc1ccccc1)O[C@@]12Cc3cc(-c4ccc(Cl)cc4)cnc3[C@@H]3Oc4c(O)ccc5c4[C@@]31CCN(CC1CC1)[C@@H]2C5 [18c]", "no stim"],
  ["Oc1ccc2c3c1O[C@H]1c4ncc(-c5ccc(Cl)cc5)cc4C[C@@]4(OCc5ccccc5)[C@@H](C2)N(CC2CC2)CC[C@]314 [17b]", "no stim"],
  ["Oc1ccc2c3c1O[C@H]1c4ncc(-c5ccc(Cl)cc5)cc4C=C4[C@@H](C2)N(CC2CC2)CC[C@]431 [compound 23]", "no stim"],
  ["O=C(Cc1ccccc1)O[C@@]12Cc3cc(-c4ccc(Cl)cc4)cnc3[C@@H]3Oc4c(O)ccc5c4[C@@]31CCN(CC1CC1)[C@@H]2C5 [18b]", "no stim"],
  ["Oc1ccc2c3c1O[C@H]1c4ncc(-c5ccc(Cl)cc5)cc4C[C@@]4(OC/C=C/c5ccccc5)[C@@H](C2)N(CC2CC2)CC[C@]314 [17c]", "no stim"],
  ["Oc1ccc2c3c1O[C@H]1c4ncc(-c5ccc(Cl)cc5)cc4C[C@@]4(OCCCc5ccccc5)[C@@H](C2)N(CC2CC2)CC[C@]314 [17d]", "no stim"]
]}

====

Reported pEC50 values are given for each entry in this list.
# SYSTEM: DOR (Mus musculus, UniProt P32300)
# Sequence (P32300 whole entry): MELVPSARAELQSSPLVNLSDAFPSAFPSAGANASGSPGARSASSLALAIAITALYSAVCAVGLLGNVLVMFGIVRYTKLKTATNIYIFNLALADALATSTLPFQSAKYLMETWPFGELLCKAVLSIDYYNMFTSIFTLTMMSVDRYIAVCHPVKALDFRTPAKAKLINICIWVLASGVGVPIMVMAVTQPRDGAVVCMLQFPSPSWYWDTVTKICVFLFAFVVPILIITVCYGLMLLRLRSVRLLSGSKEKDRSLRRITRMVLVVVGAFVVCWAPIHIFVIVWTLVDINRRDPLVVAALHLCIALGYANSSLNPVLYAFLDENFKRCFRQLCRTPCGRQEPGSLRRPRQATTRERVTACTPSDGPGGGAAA
# ASSAY_TEXT: [35S]GTP-γ-S binding assay, agonist stimulation, DOR
pEC50: −log10 of the molar value.
QUANTITY_MEASURED: pEC50

{"columns": ["COMPOUND", "SYSTEM", "RECORDED_RESULT"],
 "data": [
  ["CN1CC[C@]23c4c5ccc(O)c4O[C@H]2c2ncc(-c4ccc(Cl)cc4)cc2C[C@@]3(OCCCc2ccccc2)[C@H]1C5 [17h]", "DOR (Mus musculus, UniProt P32300)", 9.57],
  ["CN1CC[C@]23c4c5ccc(O)c4O[C@H]2c2ncc(-c4ccc(Cl)cc4)cc2C[C@@]3(OC/C=C/c2ccccc2)[C@H]1C5 [17g]", "DOR (Mus musculus, UniProt P32300)", 9.23],
  ["CN1CC[C@]23c4c5ccc(O)c4O[C@H]2c2ncc(-c4ccc(Cl)cc4)cc2C[C@@]3(OC(=O)Cc2ccccc2)[C@H]1C5 [18e]", "DOR (Mus musculus, UniProt P32300)", 7.72],
  ["CN1CC[C@]23c4c5ccc(O)c4O[C@H]2c2ncc(-c4ccc(Cl)cc4)cc2C[C@@]3(OCc2ccccc2)[C@H]1C5 [17f]", "DOR (Mus musculus, UniProt P32300)", 7.96],
  ["CN1CC[C@]23c4c5ccc(O)c4O[C@H]2c2ncc(-c4ccc(Cl)cc4)cc2C[C@@]3(OC(=O)CCc2ccccc2)[C@H]1C5 [18f]", "DOR (Mus musculus, UniProt P32300)", 8.26]
]}

====

# SYSTEM: DOR (Mus musculus, UniProt P32300)
# ASSAY_TEXT: [35S]GTP-γ-S binding assay, antagonist shift design, DOR
# Assay type: biochemical
Readings of Kb for the listed molecules

{"columns": ["MOLECULE", "SYSTEM", "UNIT_ABBREVIATION", "Kb"],
 "data": [
  ["Oc1ccc2c3c1O[C@H]1c4ncc(-c5ccc(Cl)cc5)cc4C[C@@]4(OCc5ccccc5)[C@@H](C2)N(CC2CC2)CC[C@]314 [17b]", "DOR (Mus musculus, UniProt P32300)", "nM", 0.64],
  ["Oc1ccc2c3c1O[C@H]1c4ncc(-c5ccc(Cl)cc5)cc4C=C4[C@@H](C2)N(CC2CC2)CC[C@]431 [compound 23]", "DOR (Mus musculus, UniProt P32300)", "nM", 0.58],
  ["CN1CC[C@]23c4c5ccc(O)c4O[C@H]2c2ncc(-c4ccc(Cl)cc4)cc2C[C@@]3(OC(=O)c2ccccc2)[C@H]1C5 [18d]", "DOR (Mus musculus, UniProt P32300)", "nM", 45],
  ["O=C(O[C@@]12Cc3cc(-c4ccc(Cl)cc4)cnc3[C@@H]3Oc4c(O)ccc5c4[C@@]31CCN(CC1CC1)[C@@H]2C5)c1ccccc1 [18a]", "DOR (Mus musculus, UniProt P32300)", "nM", 218],
  ["CN1CC[C@]23c4c5ccc(O)c4O[C@H]2c2ncc(-c4ccc(Cl)cc4)cc2C[C@@]3(OCc2ccccc2)[C@H]1C5 [17f]", "DOR (Mus musculus, UniProt P32300)", "nM", 4.54]
]}

====

# SYSTEM: UniProtKB P32300
# ASSAY_TEXT: [35S]GTP-γ-S binding assay, antagonist shift design, DOR
# Assay type: biochemical
Mark F for Kb values under 2 nM, and T for everything at or above.

{"columns": ["COMPOUND", "SYSTEM", "GROUP_LABEL"],
 "data": [
  ["CO[C@@]12Cc3cc(-c4ccc(Cl)cc4)cnc3[C@@H]3Oc4c(O)ccc5c4[C@@]31CCN(C)[C@@H]2C5 [17e]", "UniProtKB P32300", "F"],
  ["CN1CC[C@]23c4c5ccc(O)c4O[C@H]2c2ncc(-c4ccc(Cl)cc4)cc2C[C@@]3(OC(=O)CCc2ccccc2)[C@H]1C5 [18f]", "UniProtKB P32300", "F"],
  ["O=C(Cc1ccccc1)O[C@@]12Cc3cc(-c4ccc(Cl)cc4)cnc3[C@@H]3Oc4c(O)ccc5c4[C@@]31CCN(CC1CC1)[C@@H]2C5 [18b]", "UniProtKB P32300", "F"],
  ["CN1CC[C@]23c4c5ccc(O)c4O[C@H]2c2ncc(-c4ccc(Cl)cc4)cc2C[C@@]3(OC(=O)Cc2ccccc2)[C@H]1C5 [18e]", "UniProtKB P32300", "T"],
  ["Oc1ccc2c3c1O[C@H]1c4ncc(-c5ccc(Cl)cc5)cc4C[C@@]4(OCCCc5ccccc5)[C@@H](C2)N(CC2CC2)CC[C@]314 [17d]", "UniProtKB P32300", "F"],
  ["O=C(CCc1ccccc1)O[C@@]12Cc3cc(-c4ccc(Cl)cc4)cnc3[C@@H]3Oc4c(O)ccc5c4[C@@]31CCN(CC1CC1)[C@@H]2C5 [18c]", "UniProtKB P32300", "F"]
]}

====

# SYSTEM: hMOR (Homo sapiens, UniProt P35372)
# Sequence (P35372 whole entry): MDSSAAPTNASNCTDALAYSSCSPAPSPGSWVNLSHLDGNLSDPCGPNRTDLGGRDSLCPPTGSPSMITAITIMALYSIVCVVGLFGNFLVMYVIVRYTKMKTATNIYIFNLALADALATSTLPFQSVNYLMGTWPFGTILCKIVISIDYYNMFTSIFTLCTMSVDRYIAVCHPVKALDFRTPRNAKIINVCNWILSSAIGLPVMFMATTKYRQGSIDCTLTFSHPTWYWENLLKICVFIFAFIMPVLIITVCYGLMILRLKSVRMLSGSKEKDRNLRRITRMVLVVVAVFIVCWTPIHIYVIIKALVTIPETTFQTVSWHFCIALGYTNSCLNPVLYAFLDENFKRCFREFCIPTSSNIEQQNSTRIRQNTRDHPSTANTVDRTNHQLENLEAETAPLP
# ASSAY_TEXT: [35S]GTP-γ-S binding assay, antagonist shift design, MOR
# Assay type: biochemical
In this section we review reported log10(Kb) values for a set of molecules.
QUANTITY_MEASURED: log10(Kb) (log10 of the value in nM)

{"columns": ["MOLECULE", "SYSTEM", "RECORDED_RESULT"],
 "data": [
  ["Oc1ccc2c3c1O[C@H]1c4ncc(-c5ccc(Cl)cc5)cc4C[C@@]4(OCc5ccccc5)[C@@H](C2)N(CC2CC2)CC[C@]314 [17b]", "hMOR (Homo sapiens, UniProt P35372)", 1.04],
  ["O=C(Cc1ccccc1)O[C@@]12Cc3cc(-c4ccc(Cl)cc4)cnc3[C@@H]3Oc4c(O)ccc5c4[C@@]31CCN(CC1CC1)[C@@H]2C5 [18b]", "hMOR (Homo sapiens, UniProt P35372)", -0.32],
  ["O=C(CCc1ccccc1)O[C@@]12Cc3cc(-c4ccc(Cl)cc4)cnc3[C@@H]3Oc4c(O)ccc5c4[C@@]31CCN(CC1CC1)[C@@H]2C5 [18c]", "hMOR (Homo sapiens, UniProt P35372)", 1.11],
  ["O=C(O[C@@]12Cc3cc(-c4ccc(Cl)cc4)cnc3[C@@H]3Oc4c(O)ccc5c4[C@@]31CCN(CC1CC1)[C@@H]2C5)c1ccccc1 [18a]", "hMOR (Homo sapiens, UniProt P35372)", 2.42],
  ["CN1CC[C@]23c4c5ccc(O)c4O[C@H]2c2ncc(-c4ccc(Cl)cc4)cc2C[C@@]3(OC(=O)c2ccccc2)[C@H]1C5 [18d]", "hMOR (Homo sapiens, UniProt P35372)", 3.10],
  ["Oc1ccc2c3c1O[C@H]1c4ncc(-c5ccc(Cl)cc5)cc4C=C4[C@@H](C2)N(CC2CC2)CC[C@]431", "hMOR (Homo sapiens, UniProt P35372)", 0.90]
]}

====

# SYSTEM: UniProt P32300
# ASSAY_TEXT: [35S]GTP-γ-S binding assay, agonist stimulation, DOR
# COND: stimulation of [35S]GTP-γ-S binding; no stim = no stimulation at 10 µM
QUANTITY_MEASURED: DOR EC50

{"columns": ["COMPOUND", "SYSTEM", "RECORDED_RESULT"],
 "data": [
  ["CO[C@@]12Cc3cc(-c4ccc(Cl)cc4)cnc3[C@@H]3Oc4c(O)ccc5c4[C@@]31CCN(C)[C@@H]2C5 [17e]", "UniProt P32300", "no stim"],
  ["O=C(O[C@@]12Cc3cc(-c4ccc(Cl)cc4)cnc3[C@@H]3Oc4c(O)ccc5c4[C@@]31CCN(CC1CC1)[C@@H]2C5)c1ccccc1 [18a]", "UniProt P32300", "no stim"],
  ["CN1CC[C@]23c4c5ccc(O)c4O[C@H]2c2ncc(-c4ccc(Cl)cc4)cc2C[C@@]3(OC(=O)c2ccccc2)[C@H]1C5 [18d]", "UniProt P32300", "no stim"]
]}
